Species: Rattus norvegicus
assay-summary: Open TG-GATES - Regimen: Daily Repeat
Assay type: toxicity, organism-based, Sprague-Dawley
Set-up: regimen Daily Repeat, gender Male, age 6 weeks
experimental-conditions: in vivo, po, 0 mg/kg, […], tissue Blood, route gavage, dose level Control, time 28 day
endpoint-name: Neu (%)

O=C(O)c1cccnc1 : 15
CN1C(=O)OC(C)(C)C1=O : 18.2
Nc1nc(N)c2nc(-c3ccccc3)c(N)nc2n1 : 13.6
Oc1ncnc2[nH]ncc12 : 11.8
CCSCC[C@H](N)C(=O)O : 16.8
CCC(C)(C)C(=O)O[C@H]1C[C@@H](C)C=C2C=C[C@H](C)[C@H](CC[C@@H]3C[C@@H](O)CC(=O)O3)[C@H]21 : 8.6
CC(C)C(=O)Nc1ccc([N+](=O)[O-])c(C(F)(F)F)c1 [FLUTAMIDE] : 13.6
CCN1CCCC1CNC(=O)c1cc(S(N)(=O)=O)ccc1OC (stereo not given) [SULPIRIDE] : 19
CCc1oc2ccccc2c1C(=O)c1cc(I)c(O)c(I)c1 : 13.4
O=C(N[C@H](CO)[C@H](O)c1ccc([N+](=O)[O-])cc1)C(Cl)Cl : 18.4
CC(=N)S [THIOACETAMIDE] : 9.2
CC(C)(S)[C@@H](N)C(=O)O : 16.2
C[C@]12CCC(=O)C=C1CC[C@@H]1[C@@H]2CC[C@@]2(C)[C@H]1CC[C@]2(C)O : 17.6
CC(=O)Oc1cc(C(C)C)c(OCCN(C)C)cc1C : 13.5
C[C@](N)(Cc1ccc(O)c(O)c1)C(=O)O : 21.4

###

Quick reference: Ht of the listed items.
Species: Rattus norvegicus
assay-summary: Open TG-GATES - Regimen: Daily Repeat
Type: toxicity, organism-based, Sprague-Dawley
Parameters: regimen Daily Repeat, gender Male, age 6 weeks
experimental-conditions: in vivo, po, 300 mg/kg, […], tissue Blood, route gavage, dose level Middle, time 28 day
endpoint-name: Ht (%)

CC(C)(S)[C@@H](N)C(=O)O : 42.7
O=C(N[C@H](CO)[C@H](O)c1ccc([N+](=O)[O-])cc1)C(Cl)Cl : 44.3
O=C(O)c1cccnc1 : 42.6
CCN1CCCC1CNC(=O)c1cc(S(N)(=O)=O)ccc1OC (centres undefined) [SULPIRIDE] : 45.8

###

Organism: Rattus norvegicus
assay-summary: Open TG-GATES - Regimen: Daily Repeat
Format: toxicity, organism-based, Sprague-Dawley
Set-up: regimen Daily Repeat, gender Male, age 6 weeks
experimental-conditions: in vivo, po, 0 mg/kg, 72 h, tissue Plasma, route gavage, dose level Control, time 3 day
Readings of TP for the listed molecules
endpoint-name: TP (g/dL)

CCSCC[C@H](N)C(=O)O : 5.5
CCc1oc2ccccc2c1C(=O)c1cc(I)c(O)c(I)c1 : 5.7
O=C(O)c1cccnc1 : 5.6
CN1C(=O)OC(C)(C)C1=O : 5.7
C[C@](N)(Cc1ccc(O)c(O)c1)C(=O)O : 5.6
CC(C)(S)[C@@H](N)C(=O)O : 5.8
O=C(N[C@H](CO)[C@H](O)c1ccc([N+](=O)[O-])cc1)C(Cl)Cl : 5.7
CC(=O)Oc1cc(C(C)C)c(OCCN(C)C)cc1C : 5.7
CC(C)C(=O)Nc1ccc([N+](=O)[O-])c(C(F)(F)F)c1 [FLUTAMIDE] : 5.5
CC(=N)S [THIOACETAMIDE] : 5.8
CCC(C)(C)C(=O)O[C@H]1C[C@@H](C)C=C2C=C[C@H](C)[C@H](CC[C@@H]3C[C@@H](O)CC(=O)O3)[C@H]21 : 5.6
CCN1CCCC1CNC(=O)c1cc(S(N)(=O)=O)ccc1OC (stereo unspecified) [SULPIRIDE] : 5.7
C#C[C@]1(O)CC[C@H]2[C@@H]3CCc4cc(O)ccc4[C@H]3CC[C@@]21C : 5.5
Nc1nc(N)c2nc(-c3ccccc3)c(N)nc2n1 : 5.6
Oc1ncnc2[nH]ncc12 : 6
C[C@]12CCC(=O)C=C1CC[C@@H]1[C@@H]2CC[C@@]2(C)[C@H]1CC[C@]2(C)O : 5.6

###

Species on record: Rattus norvegicus
assay-summary: Open TG-GATES - Regimen: Single
Assay type: toxicity, organism-based, Sprague-Dawley
Design: regimen Single, gender Male, age 6 weeks
experimental-conditions: in vivo, po, 0 mg/kg, 3 h, route gavage, dose level Control
# reported TERMINAL_BW; entries follow
endpoint-name: TERMINAL_BW (g)

CCN1CCCC1CNC(=O)c1cc(S(N)(=O)=O)ccc1OC (stereo unspecified) [SULPIRIDE] : 201.8
C[C@](N)(Cc1ccc(O)c(O)c1)C(=O)O : 189.8
Oc1ncnc2[nH]ncc12 : 209.8
C#C[C@]1(O)CC[C@H]2[C@@H]3CCc4cc(O)ccc4[C@H]3CC[C@@]21C : 196.6
CC(=O)Oc1cc(C(C)C)c(OCCN(C)C)cc1C : 216.6
CCSCC[C@H](N)C(=O)O : 218.5

###

Species: Rattus norvegicus
assay-summary: Open TG-GATES - Regimen: Daily Repeat
Assay type: toxicity, organism-based, Sprague-Dawley
Set-up: regimen Daily Repeat, gender Male, age 6 weeks
experimental-conditions: in vivo, po, 300 mg/kg, […], tissue Plasma, route gavage, dose level Middle, time 28 day
endpoint-name: TBIL

CC(C)(S)[C@@H](N)C(=O)O [PENICILLAMINE] : 0.072 mg/dL
O=C(N[C@H](CO)[C@H](O)c1ccc([N+](=O)[O-])cc1)C(Cl)Cl [CHLORAMPHENICOL] : 0.064 mg/dL
O=C(O)c1cccnc1 [NIACIN] : 0.008 mg/dL
CCN1CCCC1CNC(=O)c1cc(S(N)(=O)=O)ccc1OC (centres undefined) [SULPIRIDE] : 0.062 mg/dL

###

Species: Rattus norvegicus
assay-summary: Open TG-GATES - Regimen: Single
Format: toxicity, organism-based, Sprague-Dawley
Parameters: regimen Single, gender Male, age 6 weeks
experimental-conditions: in vivo, po, 0 mg/kg, 6 h, tissue Plasma, route gavage, dose level Control
Rule: TC under 80 mg/dL gives Not fulfilled, otherwise Fulfilled.

CN1C(=O)OC(C)(C)C1=O : Fulfilled
O=C(N[C@H](CO)[C@H](O)c1ccc([N+](=O)[O-])cc1)C(Cl)Cl : Not fulfilled
CCC(C)(C)C(=O)O[C@H]1C[C@@H](C)C=C2C=C[C@H](C)[C@H](CC[C@@H]3C[C@@H](O)CC(=O)O3)[C@H]21 : Not fulfilled
CC(C)C(=O)Nc1ccc([N+](=O)[O-])c(C(F)(F)F)c1 [FLUTAMIDE] : Fulfilled
CC(=O)Oc1cc(C(C)C)c(OCCN(C)C)cc1C : Not fulfilled
C#C[C@]1(O)CC[C@H]2[C@@H]3CCc4cc(O)ccc4[C@H]3CC[C@@]21C : Not fulfilled
CC(C)(S)[C@@H](N)C(=O)O : Not fulfilled
CCN1CCCC1CNC(=O)c1cc(S(N)(=O)=O)ccc1OC (stereo unspecified) [SULPIRIDE] : Not fulfilled
CCc1oc2ccccc2c1C(=O)c1cc(I)c(O)c(I)c1 : Not fulfilled
Oc1ncnc2[nH]ncc12 : Not fulfilled

###

Entries and their Hb
Species on record: Rattus norvegicus
assay-summary: Open TG-GATES - Regimen: Daily Repeat
Format: toxicity, organism-based, Sprague-Dawley
Design: regimen Daily Repeat, gender Male, age 6 weeks
experimental-conditions: in vivo, po, 300 mg/kg, […], tissue Blood, route gavage, dose level Middle, time 28 day
endpoint-name: Hb (g/dL)

CC(C)(S)[C@@H](N)C(=O)O [PENICILLAMINE] : 14.4
O=C(O)c1cccnc1 [NIACIN] : 15
O=C(N[C@H](CO)[C@H](O)c1ccc([N+](=O)[O-])cc1)C(Cl)Cl [CHLORAMPHENICOL] : 15.1
CCN1CCCC1CNC(=O)c1cc(S(N)(=O)=O)ccc1OC (centres undefined) [SULPIRIDE] : 15.8

###

Reported Hb values for the following compounds.
Species: Rattus norvegicus
assay-summary: Open TG-GATES - Regimen: Daily Repeat
Assay type: toxicity, organism-based, Sprague-Dawley
Design: regimen Daily Repeat, gender Male, age 6 weeks
experimental-conditions: in vivo, po, 300 mg/kg, 72 h, tissue Blood, route gavage, dose level Middle, time 3 day
endpoint-name: Hb

O=C(N[C@H](CO)[C@H](O)c1ccc([N+](=O)[O-])cc1)C(Cl)Cl : 13.3 g/dL
CC(C)(S)[C@@H](N)C(=O)O : 13.7 g/dL
CCN1CCCC1CNC(=O)c1cc(S(N)(=O)=O)ccc1OC (centres undefined) [SULPIRIDE] : 13.4 g/dL
O=C(O)c1cccnc1 : 13.3 g/dL

###

Species: Rattus norvegicus
assay-summary: Open TG-GATES - Regimen: Daily Repeat
Assay type: toxicity, organism-based, Sprague-Dawley
Set-up: regimen Daily Repeat, gender Male, age 6 weeks
experimental-conditions: in vivo, po, 0 mg/kg, […], tissue Blood, route gavage, dose level Control, time 14 day
So basically, if Mono comes in under 3% it's 1, and if it's 3% or more it's -1.

C[C@]12CCC(=O)C=C1CC[C@@H]1[C@@H]2CC[C@@]2(C)[C@H]1CC[C@]2(C)O : 1
Oc1ncnc2[nH]ncc12 : -1
O=C(N[C@H](CO)[C@H](O)c1ccc([N+](=O)[O-])cc1)C(Cl)Cl : 1
C[C@](N)(Cc1ccc(O)c(O)c1)C(=O)O : -1
CCc1oc2ccccc2c1C(=O)c1cc(I)c(O)c(I)c1 : -1
Nc1nc(N)c2nc(-c3ccccc3)c(N)nc2n1 : 1
CCSCC[C@H](N)C(=O)O : 1
CC(=O)Oc1cc(C(C)C)c(OCCN(C)C)cc1C : 1
CC(C)(S)[C@@H](N)C(=O)O : 1
CCN1CCCC1CNC(=O)c1cc(S(N)(=O)=O)ccc1OC (stereo unspecified) [SULPIRIDE] : 1
C#C[C@]1(O)CC[C@H]2[C@@H]3CCc4cc(O)ccc4[C@H]3CC[C@@]21C : 1
